// compounds with reported Ki on Adenosine receptor A2a (Rattus norvegicus), multi-publication
Sequence (P30543 whole entry): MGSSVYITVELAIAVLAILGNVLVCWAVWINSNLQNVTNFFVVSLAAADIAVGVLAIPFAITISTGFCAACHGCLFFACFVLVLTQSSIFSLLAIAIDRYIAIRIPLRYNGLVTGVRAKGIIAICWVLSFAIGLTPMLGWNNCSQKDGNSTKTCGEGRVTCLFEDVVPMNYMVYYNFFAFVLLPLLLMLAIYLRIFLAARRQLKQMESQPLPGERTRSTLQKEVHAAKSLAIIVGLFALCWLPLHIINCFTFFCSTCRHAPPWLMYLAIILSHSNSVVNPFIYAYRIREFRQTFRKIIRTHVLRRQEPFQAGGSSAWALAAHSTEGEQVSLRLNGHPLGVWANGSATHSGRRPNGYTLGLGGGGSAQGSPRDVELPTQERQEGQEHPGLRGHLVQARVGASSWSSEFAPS
fulfilled if Ki is below 1 µM. not fulfilled if not; exact matches included in not fulfilled.

[[record]]
compound = "Cn1c(=O)c2c(nc(/C=C/c3cccc(NC(=O)CCC(=O)O)c3)n2C)n(C)c1=O"
assayed_target = "Adenosine receptor A2a (Rattus norvegicus)"
category_label = "fulfilled"

[[record]]
compound = "Nc1nc(NC[C@H]2CCCN2Cc2ccc(Cl)cc2)nc2nc(-c3ccco3)nn12"
assayed_target = "Adenosine receptor A2a (Rattus norvegicus)"
category_label = "fulfilled"

[[record]]
compound = "NNc1ncnc2c1ncn2[C@@H]1O[C@H](CO)[C@@H](O)[C@H]1O"
assayed_target = "Adenosine receptor A2a (Rattus norvegicus)"
category_label = "not fulfilled"

[[record]]
compound = "Nc1nc(OCCC2CCCC2)nc2c1ncn2C1O[C@H](CO)[C@@H](O)[C@H]1O (stereo not given in full)"
assayed_target = "Adenosine receptor A2a (Rattus norvegicus)"
category_label = "fulfilled"

[[record]]
compound = "CCNC(=O)[C@H]1O[C@@H](n2cnc3c(NC(=O)Nc4ccccc4I)ncnc32)[C@H](O)[C@@H]1O"
assayed_target = "Adenosine receptor A2a (Rattus norvegicus)"
category_label = "fulfilled"

[[record]]
compound = "COc1cccc(C#CCN2CCn3c(nc4c3c(=O)n(C)c(=O)n4C)C2)c1"
assayed_target = "Adenosine receptor A2a (Rattus norvegicus)"
category_label = "not fulfilled"

[[record]]
compound = "CCCCC(Sc1nc(N)c2cnn(-c3ccccc3)c2n1)C(N)=O (stereo not given)"
assayed_target = "Adenosine receptor A2a (Rattus norvegicus)"
category_label = "fulfilled"

[[record]]
compound = "Cc1cc(CN2CCC(CNc3nc(N)n4nc(-c5ccco5)nc4n3)CC2)no1"
assayed_target = "Adenosine receptor A2a (Rattus norvegicus)"
category_label = "fulfilled"

[[record]]
compound = "OC[C@H]1O[C@@H](n2cnc3c(NC4CCCCC4)cc(Cl)nc32)[C@H](O)[C@@H]1O"
assayed_target = "Adenosine receptor A2a (Rattus norvegicus)"
category_label = "not fulfilled"

[[record]]
compound = "Cn1c(=O)c2c(nc3n2CCCN3Cc2ccc(Cl)cc2Cl)n(C)c1=O"
assayed_target = "Adenosine receptor A2a (Rattus norvegicus)"
category_label = "not fulfilled"

[[record]]
compound = "Nc1nc(OCCc2ccccc2)nc2c1ncn2[C@@H]1O[C@H](CO)[C@@H](O)[C@H]1O"
assayed_target = "Adenosine receptor A2a (Rattus norvegicus)"
category_label = "fulfilled"

[[record]]
compound = "CN1C(=O)N2CCCN=C2c2c1nc(Cl)n2C"
assayed_target = "Adenosine receptor A2a (Rattus norvegicus)"
category_label = "not fulfilled"

[[record]]
compound = "Cc1ccc([C@@H](C)n2c3ccccc3c3c(N)nc(-c4ccccc4)nc32)cc1"
assayed_target = "Adenosine receptor A2a (Rattus norvegicus)"
category_label = "not fulfilled"

[[record]]
compound = "Cc1nc2c(c(=O)n(C)c(=O)n2C)n1C"
assayed_target = "Adenosine receptor A2a (Rattus norvegicus)"
category_label = "not fulfilled"

[[record]]
compound = "CCCSc1nc(N)c2ncn([C@@H]3O[C@H](CO)[C@@H](O)[C@H]3O)c2n1"
assayed_target = "Adenosine receptor A2a (Rattus norvegicus)"
category_label = "not fulfilled"

[[record]]
compound = "CC(C)CCCOc1nc(N)c2ncn(C3O[C@H](CO)[C@@H](O)[C@H]3O)c2n1 (stereo not given in full)"
assayed_target = "Adenosine receptor A2a (Rattus norvegicus)"
category_label = "fulfilled"

[[record]]
compound = "Cn1c(=O)c2c(nc3n2CCCN3c2ccc(OCCN3CCCCC3)cc2)n(C)c1=O"
assayed_target = "Adenosine receptor A2a (Rattus norvegicus)"
category_label = "not fulfilled"

[[record]]
compound = "Nc1cc(NC[C@H]2CCCN2Cc2ccccc2F)nc2nc(-c3ccco3)nn12"
assayed_target = "Adenosine receptor A2a (Rattus norvegicus)"
category_label = "fulfilled"

[[record]]
compound = "CC(O)[C@@H]1O[C@@H](n2cnc3c(N)ncnc32)[C@H](O)[C@@H]1O (stereo not given in full)"
assayed_target = "Adenosine receptor A2a (Rattus norvegicus)"
category_label = "not fulfilled"

[[record]]
compound = "Nc1nc(N2CCN(Cc3csnn3)CC2)nc2nc(-c3ccco3)nn12"
assayed_target = "Adenosine receptor A2a (Rattus norvegicus)"
category_label = "fulfilled"

